- Test system: NCI-H1755
- Test Protocol: relative viability (nuclei count vs DMSO), 5 days (fraction); higher = more cells survive
- Condition Set: first compound 0.6325 µM

| Compound | relative viability |
| --- | --- |
| Cc1csc(=NC2CCCCC2)n1/N=C/c1ccc(O)c(O)c1O [MIM1] + CS(=O)(=O)CCNCc1ccc(-c2ccc3ncnc(Nc4ccc(OCc5cccc(F)c5)c(Cl)c4)c3c2)o1 [Lapatinib] (partner 2 µM) | 0.973 |
| CN1CCN(CCOc2cc(OC3CCOCC3)c3c(Nc4c(Cl)ccc5c4OCO5)ncnc3c2)CC1 [Saracatinib] + C[C@]1(O)C[C@@H](c2nc(-c3ccc4ccc(-c5ccccc5)nc4c3)c3c(N)nccn32)C1 [Linsitinib] (partner 1 µM) | 0.95 |
| CN1CCN(CCOc2cc(OC3CCOCC3)c3c(Nc4c(Cl)ccc5c4OCO5)ncnc3c2)CC1 [Saracatinib] + Nc1ncn([C@H]2C[C@H](O)[C@@H](CO)O2)c(=O)n1 [Decitabine] (partner 2 µM) | 0.72 |
| Cc1csc(=NC2CCCCC2)n1/N=C/c1ccc(O)c(O)c1O [MIM1] + Nc1ncn([C@H]2C[C@H](O)[C@@H](CO)O2)c(=O)n1 [Decitabine] (partner 2 µM) | 0.694 |
| Cc1csc(=NC2CCCCC2)n1/N=C/c1ccc(O)c(O)c1O [MIM1] + C[C@@H](Oc1cc(-c2cnn(C3CCNCC3)c2)cnc1N)c1c(Cl)ccc(F)c1Cl [Crizotinib] (partner 1 µM) | 0.794 |
| Cc1csc(=NC2CCCCC2)n1/N=C/c1ccc(O)c(O)c1O [MIM1] + Cc1nc(Nc2ncc(C(=O)Nc3c(C)cccc3Cl)s2)cc(N2CCN(CCO)CC2)n1 [Dasatinib] (partner 0.075 µM) | 0.442 |
| CN1CCN(CCOc2cc(OC3CCOCC3)c3c(Nc4c(Cl)ccc5c4OCO5)ncnc3c2)CC1 [Saracatinib] + Nc1nc2[nH]cc(CCc3ccc(C(=O)N[C@@H](CCC(=O)O)C(=O)O)cc3)c2c(=O)[nH]1 [Pemetrexed] (partner 0.2 µM) | 0.424 |
| Cc1csc(=NC2CCCCC2)n1/N=C/c1ccc(O)c(O)c1O [MIM1] + CCNC(=O)c1noc(-c2cc(C(C)C)c(O)cc2O)c1-c1ccc(CN2CCOCC2)cc1 [Luminespib] (partner 0.01 µM) | 0.51 |

* * *

relative viability reference
- Tested on: HOP-62
- Test Protocol: relative viability (nuclei count vs DMSO), 5 days (fraction); higher = more cells survive
- Condition Set: first compound 0.2 µM
Measured Endpoint: relative viability

| Compound | Measured Endpoint | Recorded Result |
| --- | --- | --- |
| CCNC(=O)c1noc(-c2cc(C(C)C)c(O)cc2O)c1-c1ccc(CN2CCOCC2)cc1 [Luminespib] + CS(=O)(=O)CCNCc1ccc(-c2ccc3ncnc(Nc4ccc(OCc5cccc(F)c5)c(Cl)c4)c3c2)o1 [Lapatinib] (partner 2 µM) | relative viability | 0.0994 |
| Cc1csc(=NC2CCCCC2)n1/N=C/c1ccc(O)c(O)c1O [MIM1] + CS(=O)(=O)CCNCc1ccc(-c2ccc3ncnc(Nc4ccc(OCc5cccc(F)c5)c(Cl)c4)c3c2)o1 [Lapatinib] (partner 2 µM) | relative viability | 0.929 |
| CN1CCN(CCOc2cc(OC3CCOCC3)c3c(Nc4c(Cl)ccc5c4OCO5)ncnc3c2)CC1 [Saracatinib] + Cc1cc(Nc2cc(N3CCN(C)CC3)nc(Sc3ccc(NC(=O)C4CC4)cc3)n2)n[nH]1 [Tozasertib] (partner 0.1 µM) | relative viability | 0.318 |
| Cc1csc(=NC2CCCCC2)n1/N=C/c1ccc(O)c(O)c1O [MIM1] + N=C(N)NC(=N)NCCc1ccccc1 [Phenformin] (partner 250 µM) | relative viability | 0.641 |
| Cc1csc(=NC2CCCCC2)n1/N=C/c1ccc(O)c(O)c1O [MIM1] + CC(C)C[C@H](NC(=O)[C@H](Cc1ccccc1)NC(=O)c1cnccn1)B(O)O [Bortezomib] (partner 0.002 µM) | relative viability | 1.04 |
| Cc1csc(=NC2CCCCC2)n1/N=C/c1ccc(O)c(O)c1O [MIM1] + Cc1nc(Nc2ncc(C(=O)Nc3c(C)cccc3Cl)s2)cc(N2CCN(CCO)CC2)n1 [Dasatinib] (partner 0.075 µM) | relative viability | 0.579 |
| Cc1csc(=NC2CCCCC2)n1/N=C/c1ccc(O)c(O)c1O [MIM1] + Nc1ncn([C@H]2C[C@H](O)[C@@H](CO)O2)c(=O)n1 [Decitabine] (partner 2 µM) | relative viability | 0.206 |
| CN1CCN(CCOc2cc(OC3CCOCC3)c3c(Nc4c(Cl)ccc5c4OCO5)ncnc3c2)CC1 [Saracatinib] + Cc1nc(Nc2ncc(C(=O)Nc3c(C)cccc3Cl)s2)cc(N2CCN(CCO)CC2)n1 [Dasatinib] (partner 0.075 µM) | relative viability | 0.663 |
